Molecular target: cortisol synthase (CYP11B1) (Macaca fascicularis)
Test: Inhibition of cortisol synthesis (cynomolgus adrenal mitochondria, cortisol by mass spectrometry)
Type: biochemical, cynomolgus monkey
Conditions: cynomolgus adrenal gland mitochondria, 11-deoxycortisol as substrate, cortisol measured as product; read-out: CYP11B1 Inhibition IC50
Output TRUE for records whose IC50 is lower than 3000 nM, FALSE for records at or above 3000 nM.

Solved entries (count: 5):
{"MOLECULE": "CC1(C)CC(=O)c2c(noc2Cc2ccc(OCCS(C)(=N)=O)cc2)C1 (stereo not drawn) [Cpd 85]", "TEST TARGET": "cortisol synthase (CYP11B1) (Macaca fascicularis)", "CLASS LABEL": "FALSE"}
{"MOLECULE": "CS(=O)(=O)CCCOc1ccc(Cc2onc3c2C(=O)CC(Cc2ccccc2)C3)cc1 (stereo not drawn) [Cpd 49]", "TEST TARGET": "cortisol synthase (CYP11B1) (Macaca fascicularis)", "CLASS LABEL": "TRUE"}
{"MOLECULE": "O=C1CC(Cc2ccccc2)Cc2noc(Cc3ccc(C(=O)N4CC[C@@H](O)C4)cc3)c21 (stereo partly drawn) [Cpd 57]", "TEST TARGET": "cortisol synthase (CYP11B1) (Macaca fascicularis)", "CLASS LABEL": "TRUE"}
{"MOLECULE": "CN(CCO)C(=O)c1ccc(Cc2onc3c2C(=O)OC(C)(C)C3)cc1 [Cpd 96]", "TEST TARGET": "cortisol synthase (CYP11B1) (Macaca fascicularis)", "CLASS LABEL": "FALSE"}
{"MOLECULE": "CC1(C)CC(=O)c2c(noc2Cc2ccc(OCCC(N)=O)cc2)C1 [Cpd 81]", "TEST TARGET": "cortisol synthase (CYP11B1) (Macaca fascicularis)", "CLASS LABEL": "TRUE"}

Consider now this further molecule.
// query Please determine if CC1(C)CC(=O)c2c(noc2Cc2ccc(I)cc2)C1 [Cpd 25] is below 3000 nM in terms of IC50.
// result TRUE

###

Target: cortisol synthase (CYP11B1) (Macaca fascicularis)
Test: Inhibition of cortisol synthesis (cynomolgus adrenal mitochondria, cortisol by mass spectrometry)
Format: biochemical, cynomolgus monkey
Conditions: cynomolgus adrenal gland mitochondria, 11-deoxycortisol as substrate, cortisol measured as product; read-out: CYP11B1 Inhibition IC50
Output 1.0 for records whose IC50 is lower than 7 µM, 0.0 for records at or above 7 µM.

Solved entries (count: 8):
{"MOLECULE": "CC1(C)CC(=O)c2c(noc2Cc2ccc(OCCCS(C)(=O)=O)cc2)C1", "CLASS LABEL": 1.0}
{"MOLECULE": "CC1(C)Cc2noc(CC3CCOCC3)c2C(=O)O1", "CLASS LABEL": 0.0}
{"MOLECULE": "CC1(C)CC(=O)c2c(noc2Cc2ccc(OCCS(C)(=O)=O)cc2)C1", "CLASS LABEL": 0.0}
{"MOLECULE": "COCCN(C)C(=O)c1ccc(Cc2onc3c2C(=O)CC(C)(C)C3)cc1", "CLASS LABEL": 0.0}
{"MOLECULE": "CC1(C)Cc2noc(Cc3ccc(C#N)cc3)c2C(=O)O1", "CLASS LABEL": 0.0}
{"MOLECULE": "CC(C)C1CC(=O)c2c(noc2CC2CCN(C(=O)CS(C)(=O)=O)CC2)C1 (centres unmarked)", "CLASS LABEL": 0.0}
{"MOLECULE": "O=C1CC(CC2CC2)Cc2noc(Cc3ccccc3)c21 (centres unmarked)", "CLASS LABEL": 1.0}
{"MOLECULE": "CC1CC(=O)c2c(noc2Cc2ccc(C(=O)N3CCN(C)C(=O)C3)cc2)C1 (centres unmarked)", "CLASS LABEL": 1.0}

Consider now this further molecule.
// query Please determine if CN(CCS(C)(=O)=O)C(=O)c1ccc(Cc2onc3c2C(=O)CC(C)(C)C3)cc1 is below 7 µM in terms of IC50.
// result 0.0

###

Target: cortisol synthase (CYP11B1) (Macaca fascicularis, UniProt A0A2K5ULY1)
Assay: Inhibition of cortisol synthesis (cynomolgus adrenal mitochondria, cortisol by mass spectrometry)
Assay type: biochemical, cynomolgus monkey
Conditions: cynomolgus adrenal gland mitochondria, 11-deoxycortisol as substrate, cortisol measured as product; read-out: CYP11B1 Inhibition IC50
Output y for records whose IC50 is lower than 5 µM, n for records at or above 5 µM.

Solved entries (count: 3):
{"MOLECULE": "CC1(C)CC(=O)c2c(noc2Cc2ccc(C(=O)N3CC[C@@H](O)C3)cc2)C1", "CLASS LABEL": "n"}
{"MOLECULE": "CCN(CCO)C(=O)c1ccc(Cc2onc3c2C(=O)CC(C)(C)C3)cc1", "CLASS LABEL": "n"}
{"MOLECULE": "O=C1CC2(CCC2)Cc2noc(Cc3ccccc3)c21", "CLASS LABEL": "y"}

// query Please determine if C[C@H](O)CNC(=O)c1ccc(Cc2onc3c2C(=O)CC(C)(C)C3)cc1 is below 5 µM in terms of IC50.
// result n

// query Please determine if CC1(C)Cc2noc(Cc3ccc(F)cc3)c2C(=O)O1 is below 5 µM in terms of IC50.
// result n

###

For each entry below, report its pIC50 value.
Target: aldosterone synthase (CYP11B2) (Macaca fascicularis, UniProt A0A2K5UPL9)
Sequence (A0A2K5UPL9 1-503): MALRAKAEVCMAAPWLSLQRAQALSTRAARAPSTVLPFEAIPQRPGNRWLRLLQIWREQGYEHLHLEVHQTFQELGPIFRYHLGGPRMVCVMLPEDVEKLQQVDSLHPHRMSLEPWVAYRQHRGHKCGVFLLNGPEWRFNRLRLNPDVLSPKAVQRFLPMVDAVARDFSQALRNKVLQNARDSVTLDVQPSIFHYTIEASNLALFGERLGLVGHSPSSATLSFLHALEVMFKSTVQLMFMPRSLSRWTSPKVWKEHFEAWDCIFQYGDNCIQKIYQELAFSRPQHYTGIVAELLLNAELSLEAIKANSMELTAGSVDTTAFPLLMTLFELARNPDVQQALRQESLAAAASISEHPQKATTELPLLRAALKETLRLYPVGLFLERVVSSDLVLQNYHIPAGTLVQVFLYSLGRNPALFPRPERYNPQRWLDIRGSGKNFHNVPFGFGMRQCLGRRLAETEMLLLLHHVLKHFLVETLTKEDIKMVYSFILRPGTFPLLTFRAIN
One number for each entry, as −log10 of the molar value.

{"MOLECULE": "CC1(C)CC(=O)c2c(noc2Cc2ccc3c(c2)OCCO3)C1 [Cpd 3]", "pIC50": 7.77}
{"MOLECULE": "CC1(C)CC(=O)c2c(noc2Cc2ccc(OCCCC(N)=O)cc2)C1 [Cpd 78]", "pIC50": 7.62}
{"MOLECULE": "CC(C)C1CC(=O)c2c(noc2Cc2ccc(C#N)cc2)C1 (single isomer, unassigned) [Cpd 39A]", "pIC50": 6.64}
{"MOLECULE": "O=C1CC(CC2CC2)Cc2noc(Cc3ccccc3)c21 (stereo not drawn) [Cpd 2]", "pIC50": 7.96}
{"MOLECULE": "CC(=O)N1CCC(Cc2onc3c2C(=O)CC(C(C)C)C3)CC1 (single isomer, unassigned) [Cpd 15A]", "pIC50": 7.66}
{"MOLECULE": "CC1(C)Cc2noc(CC3CCOCC3)c2C(=O)O1 [Cpd 92]", "pIC50": 6.47}
{"MOLECULE": "CC(C)C1CC(=O)c2c(noc2CC2CCN(C(=O)CS(C)(=O)=O)CC2)C1 (stereo not drawn) [Cpd 20]", "pIC50": 6.39}
{"MOLECULE": "CC1(C)CC(=O)c2c(noc2Cc2ccc(OCCCC(=O)N3CC[C@@H](O)C3)cc2)C1 [Cpd 84]", "pIC50": 7.16}

// query Provide only the value of recorded pIC50 for CN1CCN(C(=O)c2ccc(Cc3onc4c3C(=O)OC(C)(C)C4)cc2)CC1=O [Cpd 97]
// result 6.77

###

Molecular target: cortisol synthase (CYP11B1) (Macaca fascicularis)
Experiment: Inhibition of cortisol synthesis (cynomolgus adrenal mitochondria, cortisol by mass spectrometry)
Assay type: biochemical, cynomolgus monkey
Conditions: cynomolgus adrenal gland mitochondria, 11-deoxycortisol as substrate, cortisol measured as product; read-out: CYP11B1 Inhibition IC50
pIC50: −log10 of the molar value.
Assign fulfilled to entries whose pIC50 meets or exceeds 5; assign not fulfilled to the rest.

// query Textbook exercise: given the entry CC1(C)CC(=O)c2c(noc2Cc2ccc3c(c2)OCCO3)C1 , state whether its pIC50 is greater than or equal to 5.
// result fulfilled

// query Textbook exercise: given the entry CC1(C)CC(=O)c2c(noc2Cc2ccc(F)cc2)C1 , state whether its pIC50 is greater than or equal to 5.
// result not fulfilled

###

Molecular target: aldosterone synthase (CYP11B2) (Macaca fascicularis, UniProt A0A2K5UPL9)
Sequence (A0A2K5UPL9 1-503): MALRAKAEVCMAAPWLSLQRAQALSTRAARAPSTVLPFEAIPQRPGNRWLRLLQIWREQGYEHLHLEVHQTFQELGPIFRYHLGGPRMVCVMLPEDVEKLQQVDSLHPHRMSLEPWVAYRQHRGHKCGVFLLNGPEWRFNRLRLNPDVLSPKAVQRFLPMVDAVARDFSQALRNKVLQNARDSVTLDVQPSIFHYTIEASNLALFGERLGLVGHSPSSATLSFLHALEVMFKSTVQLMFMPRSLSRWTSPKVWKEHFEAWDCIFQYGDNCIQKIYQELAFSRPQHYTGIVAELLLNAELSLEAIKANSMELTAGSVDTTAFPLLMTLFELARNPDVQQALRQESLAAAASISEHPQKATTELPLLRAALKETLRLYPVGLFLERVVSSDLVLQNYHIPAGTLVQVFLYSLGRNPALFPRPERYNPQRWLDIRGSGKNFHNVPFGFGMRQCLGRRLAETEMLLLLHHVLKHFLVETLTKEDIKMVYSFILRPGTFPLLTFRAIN
For each entry below, report its pIC50 value.
One number for each entry, as −log10 of the molar value.

For orientation, consider the following solved cases.
{"COMPOUND": "CC(C)N(CCO)C(=O)c1ccc(Cc2onc3c2C(=O)CC(C)(C)C3)cc1 [Cpd 67]", "pIC50": 6.92}
{"COMPOUND": "NC(=O)N1CCC(Cc2onc3c2C(=O)CC2(CCC2)C3)CC1 [Cpd 22]", "pIC50": 7.24}
{"COMPOUND": "CC1(C)CC(=O)c2c(noc2Cc2ccc(C(=O)NCC3(CO)CCCC3)cc2)C1 [Cpd 70]", "pIC50": 6.80}

Proceeding to the next compound to report its pIC50.
// query Please indicate recorded pIC50 of CC1(C)CC(=O)c2c(noc2Cc2ccc(C(=O)NCCS(N)(=O)=O)cc2)C1 [Cpd 54] measured with aldosterone synthase (CYP11B2) (Macaca fascicularis, UniProt A0A2K5UPL9).
// result 7.24

Hey, just so you know, these numbers are from patent US10131642B1.
